endpoint: melting point

Consider the reported melting point for these compounds:
CSCCCn1c(C)nc2c(N)nc3ccccc3c21 [Example 22]
199 to 202 °C
Cc1nc2c(N)nc3ccccc3c2n1CCCCCS(C)(=O)=O [Example 12]
235 to 240 °C
Cc1nc2c(N)nc3c(c2n1CCCCS(=O)(=O)C(C)(C)C)CCCC3 [Example 78]
208 to 210 °C
Cc1nc2c(N)nc3ccccc3c2n1CCS(C)(=O)=O [Example 33]
242 to 245 °C

I need melting point for every entry listed below, if you could help.
1. Nc1nc2ccccc2c2c1ncn2CCCCCS(=O)(=O)c1ccccc1 [Example 69]
2. Cc1nc2c(N)nc3ccccc3c2n1CCCS(C)(=O)=O [Example 23]
3. CCCCc1nc2c(N)nc3ccccc3c2n1CCS(C)(=O)=O [Example 67]
4. CSCCCCn1cnc2c(N)nc3ccccc3c21 [Example 10]
5. Nc1nc2ccccc2c2c1ncn2CCSc1ccccc1 [Example 6]
6. CCc1nc2c(N)nc3ccccc3c2n1CCCCS(C)(=O)=O [Example 29]

stdout:
171 to 172 °C
225 to 228 °C
226 to 228 °C
163 to 164 °C
233 to 235 °C
182 to 185 °C

* * *

Field: melting point. Provide a value for each of the compounds that follow.

CCc1nc2c(N)nc3ccccc3c2n1CCCSC
210 to 212 °C

I need melting point for every entry listed below, if you could help.
1. CCCCc1nc2c(N)nc3ccccc3c2n1CCCCS(C)(=O)=O
2. CCCCc1nc2c(N)nc3ccccc3c2n1CCCCS(=O)(=O)c1ccc(F)cc1F
3. CS(=O)(=O)CCCCn1cnc2c(N)nc3ccccc3c21
4. CCCCc1nc2c(N)nc3ccccc3c2n1CCCCS(=O)(=O)c1ccccc1

stdout:
164 to 165 °C
190 to 193 °C
203 to 204 °C
179 to 180 °C

* * *

Field: melting point. Provide a value for each of the compounds that follow.

I need melting point for every entry listed below, if you could help.
1. Cc1nc2c(N)nc3ccccc3c2n1CCCC[S+](C)[O-] (stereo not drawn)
2. Cc1nc2c(N)nc3c(c2n1CCCCS(=O)(=O)c1ccc(F)cc1)CCCC3
3. CCCCc1nc2c(N)nc3ccccc3c2n1CCCCC[S+](C)[O-] (stereo not drawn)
4. CCc1nc2c(N)nc3ccccc3c2n1CCS(C)(=O)=O
5. CSCCn1c(C)nc2c(N)nc3ccccc3c21
6. CCOCc1nc2c(N)nc3c(c2n1CCCCS(C)(=O)=O)CCCC3
7. CCCCc1nc2c(N)nc3ccccc3c2n1CCCCSc1ccccc1
8. CCc1nc2c(N)nc3ccccc3c2n1CCCCSc1ncccn1

stdout:
["184 to 187 °C", "159 to 162 °C", "119 to 121 °C", "222 to 225 °C", "193 to 195 °C", "170 to 171 °C", "118 to 120 °C", "182 to 185 °C"]

* * *

Where a name gives a salt, the structure may show the parent alone.
Field: melting point. Provide a value for each of the molecules that follow.

Consider the reported melting point for these molecules:
CSCCCCn1c(C)nc2c(N)nc3ccccc3c21 [Example 26]
190 to 193 °C
CS(=O)(=O)CCCCCn1cnc2c(N)nc3ccccc3c21 [Example 14]
199 to 201 °C
CCCCc1nc2c(N)nc3ccccc3c2n1CCCS(=O)(=O)c1ccccc1 [Example 20]
224 to 227 °C

I need melting point for every entry listed below, if you could help.
1. CCCCc1nc2c(N)nc3ccccc3c2n1CCCCSc1ccc(F)cc1F [Example 37]
2. CCCCCCc1nc2c(N)nc3ccccc3c2n1CCCCCS(C)(=O)=O [Example 15]
3. CS(=O)(=O)CCCCCn1c(C(F)(F)F)nc2c(N)nc3ccccc3c21 [Example 71]

stdout:
1. 122 to 126 °C
2. 168 to 171 °C
3. 192 to 195 °C

I need melting point for every entry listed below, if you could help.
1. CCCCc1nc2c(N)nc3ccccc3c2n1CCCCCSC [Example 17]
2. CCCc1nc2c(N)nc3ccccc3c2n1CCS(C)(=O)=O [Example 36]
3. Nc1nc2ccccc2c2c1ncn2CCCCSc1ccccc1 [Example 9]
4. COCCc1nc2c(N)nc3ccccc3c2n1CCCCCS(=O)(=O)c1ccccc1 [Example 70]

stdout:
["112 to 114 °C", "212 to 214 °C", "158 to 160 °C", "172 to 175 °C"]

I need melting point for every entry listed below, if you could help.
1. Cc1nc2c(N)nc3c(c2n1CCCCS(=O)(=O)C(C)C)CCCC3 [Example 76]
2. CCCCc1nc2c(N)nc3ccccc3c2n1CCCCSC [Example 4]
3. Nc1nc2ccccc2c2c1ncn2CCCCS(=O)(=O)c1ccccc1 [Example 7]
4. CCCCc1nc2c(N)nc3ccccc3c2n1CCCS(C)(=O)=O [Example 19]
5. COCCc1nc2c(N)nc3ccccc3c2n1CCCCCS(C)(=O)=O [Example 16]
6. CCCCc1nc2c(N)nc3c(c2n1CCSc1ccccc1)CCCC3 (as salt: hydrochloride) [Example 2]

stdout:
1. 177 to 178 °C
2. 127 to 130 °C
3. 175 to 177 °C
4. 233 to 236 °C
5. 158 to 160 °C
6. 237 to 238 °C
